test system: LOX IMVI melanoma; test: NCI tumour cell line growth inhibition, 48 h
Listed next: entries and their corresponding TGI.
MEASURED PARAMETER: TGI

COMPOUND | RECORDED MEASUREMENT
CC1=CC(=O)C2=C(C)CCC3C(C)C(=O)OC3C12 (stereo unspecified) | > 100 µM
COC[C@@H](N=C1NC(=O)/C(=C/c2ccc3ncccc3c2)S1)c1ccccc1 | > 25 µM
Fc1cc2[nH]ncc2c2c3c(c(-c4cn[nH]c4C(F)(F)F)nc12)CCCC3 | 3.05 µM
Cc1ccc(S(=O)(=O)OCCn2cnc3nc(NC(=O)c4ccccc4)[nH]c(=O)c32)cc1 | > 100 µM
O=c1[nH]c(=O)n(COCc2ccccc2)c2ccsc12 | > 100 µM
O=P12N(CCN1c1ccccc1)CCN2c1ccccc1 | > 100 µM
COC(=O)C(N)CCCC(N)C(=O)NC(C)C(=O)NC(CCC(=O)NCCNCCNc1c2ccccc2nc2cccc([N+](=O)[O-])c12)C(N)=O (stereo unspecified) | 43 µM
COC(=O)C1CCc2c1c(=O)n1c([nH]c3ccccc31)c2C#N (stereo unspecified) | > 100 µM
COc1cc(OC)c2c(c1)OC(c1ccccc1)CC2=O (stereo unspecified) | > 10 µM
COc1cc(/C=C\c2cc(OC)c(OC)c(OC)c2)cc(N/C=C\C(=O)c2ccc(OC(F)(F)F)cc2)c1OC | > 100 µM
CC(Nc1ncc2c(n1)-c1ccccc1OC2)C(=O)O (stereo unspecified) | > 100 µM

====

Listed next: entries and their corresponding TGI.
tested on: CCRF-CEM leukemia; experiment: NCI tumour cell line growth inhibition, 48 h
MEASURED PARAMETER: TGI

MOLECULE | TARGET DESC | RECORDED MEASUREMENT
Nc1nccc(-c2c(-c3ccc(F)cc3)ncn2C2CCNCC2)n1 | CCRF-CEM leukemia | > 25 µM
O=c1c2c(=NCCN3CCCC3)cc3c(=O)n(CCCN4CCOCC4)c(=O)c4c(-c5ccc(CN6CCCC6)cc5)cc(c(O)n1CCCN1CCOCC1)c2c4-3 | CCRF-CEM leukemia | 1.05 µM
COC(=O)C1CCc2c1c(=O)n1c([nH]c3ccccc31)c2C#N (stereo unspecified) | CCRF-CEM leukemia | > 100 µM
O=C1NC(=O)C(F)(n2cc(F)c(=O)[nH]c2=O)C(O)N1 (stereo unspecified) | CCRF-CEM leukemia | > 10 µM
O=c1ccn(CC2(CO)CCC2)c(=O)[nH]1 | CCRF-CEM leukemia | > 100 µM
COC(=O)C(Cc1cc(OC)c(OC)c(OC)c1)C(=O)OC | CCRF-CEM leukemia | > 320 µM
Oc1ccc(O)c(CNc2ccc(C(O)C(F)(F)F)cc2)c1 (stereo unspecified) | CCRF-CEM leukemia | 33.5 µM
COc1ccc(C(c2cc(OC)c(OC)c(OC)c2)n2ccnc2)cc1O (stereo unspecified) | CCRF-CEM leukemia | > 100 µM
CN(CCN1C(=O)c2cc([N+](=O)[O-])cc3cc([N+](=O)[O-])cc(c23)C1=O)CCN1C(=O)c2cc([N+](=O)[O-])cc3cc([N+](=O)[O-])cc(c23)C1=O | CCRF-CEM leukemia | 4.03 µM
CC(C)(C)OC(=O)NC(CCCCNC(=O)OCc1ccccc1)C(=O)NCCNc1ccc(NCCNC(=O)C(CCCCNC(=O)OCc2ccccc2)NC(=O)OC(C)(C)C)c2c1C(=O)c1ccccc1C2=O (stereo unspecified) | CCRF-CEM leukemia | > 100 µM
CCN(Cc1ccc(C)cc1)c1ccc(CO)c(Cl)c1 | CCRF-CEM leukemia | 51.3 µM
CN(C)CCCc1cccc2[nH]c3c(c12)CN(C)CC3 | CCRF-CEM leukemia | > 100 µM
COc1cc(Nc2nc3cc(N)cc(N)c3nc2-c2ccccc2)cc(OC)c1OC | CCRF-CEM leukemia | 42 µM
CCCCNC(=O)c1cc2c(cc1Cl)Sc1nccn1S2(=O)=O | CCRF-CEM leukemia | > 100 µM
CC1=CC(=O)C2=C(C)CCC3C(C)C(=O)OC3C12 (stereo unspecified) | CCRF-CEM leukemia | > 100 µM
COC(=O)C(N)CCCC(N)C(=O)NC(C)C(=O)NC(CCC(=O)NCCNCCNc1c2ccccc2nc2cccc([N+](=O)[O-])c12)C(N)=O (stereo unspecified) | CCRF-CEM leukemia | > 50.9 µM
O=C(O)c1ccc(C(=O)c2ccccc2C(=O)O)cc1C(=O)O | CCRF-CEM leukemia | > 100 µM
COc1cc(/C=C\c2cc(OC)c(OC)c(OC)c2)cc(N/C=C\C(=O)c2ccc(OC(F)(F)F)cc2)c1OC | CCRF-CEM leukemia | > 100 µM
NC(Cc1ccc(OCc2ccccc2)cn1)C(=O)O (stereo unspecified) | CCRF-CEM leukemia | > 100 µM
CN(C)c1ccc(C=Nc2ccc(-c3nc4ccccc4[nH]3)cc2)cc1 | CCRF-CEM leukemia | > 100 µM
O=c1[nH]c2ccccc2c(=O)n1/N=C/c1ccc(O)cc1 | CCRF-CEM leukemia | > 100 µM
NS(=O)(=O)c1ccc(Nc2cc(-c3cccc(O)c3)[nH]n2)cc1 | CCRF-CEM leukemia | > 25 µM
CCC(C)CCOC(=O)c1ccc(N=Cc2ccc(C=Nc3ccc(C(=O)OCCC(C)CC)cc3)cc2)cc1 (stereo unspecified) | CCRF-CEM leukemia | > 100 µM
O=C(CC(Cl)=C(Cl)Cl)Nc1ccccc1 | CCRF-CEM leukemia | > 100 µM
CC(C)C1C(=O)N(c2c(F)c(F)c(F)c(F)c2F)C(=S)N1CCS(=O)c1ccccc1 (stereo unspecified) | CCRF-CEM leukemia | 42.3 µM
O=c1[nH]c(Nc2ccc(Cl)c(C(F)(F)F)c2)nc2nc[nH]c12 | CCRF-CEM leukemia | 45.4 µM
C=C1C(=O)O[C@H]2C/C(C)=C/CC[C@@]3(C)O[C@](C)(CC[C@@H]3I)[C@@H](I)C[C@@H]12 | CCRF-CEM leukemia | 13.3 µM
Cc1cn([C@@H]2C[C@@H]2CO)c(=O)[nH]c1=O | CCRF-CEM leukemia | > 100 µM
Cc1nc2ccc(Nc3nc(Cl)nc(N4CCOCC4)n3)cc2n1Cc1ccccc1 | CCRF-CEM leukemia | > 100 µM
CS(=O)(=O)Nc1cncc(-c2ccc3ncnc(Nc4ccc(F)c(Cl)c4)c3c2)c1 | CCRF-CEM leukemia | 13 µM
COC[C@@H](N=C1NC(=O)/C(=C/c2ccc3ncccc3c2)S1)c1ccccc1 | CCRF-CEM leukemia | > 22 µM
